// reported IC50 per item
TESTED_TARGET: SGLT1 (Homo sapiens)
TEST_DETAILS: SGLT1 activity measurement: 14C-AMG uptake in BHK cells transfected with SGLT1
REPORTED_CONDITIONS: AMG 50 μM, 37° C., 90 min

COMPOUND: CCc1cc(OCC(O)CO)cc(OCC(N)=O)c1-c1nc2ccc(F)cn2c1Nc1c(C)cccc1C (centres unmarked)
IC50: > 10 µM

COMPOUND: CCc1cccc(OCC(N)=O)c1-c1nc2ccc(F)cn2c1Nc1c(Cl)cccc1Cl
IC50: 0.01 to 1 µM

COMPOUND: COc1cc(C)c(-c2nc3ccc(F)cn3c2Nc2c(F)cccc2Cl)c(OCC(N)=O)c1
IC50: > 10 µM

COMPOUND: COc1ccc(-c2nc3ccc(F)cn3c2Nc2c(C)cccc2C)c(OCC(N)=O)c1OC
IC50: > 10 µM

COMPOUND: COc1ccc(-c2nc3ccccn3c2Nc2c(C)cccc2Cl)c(OCC(N)=O)c1
IC50: 1 to 10 µM

COMPOUND: CCc1cc(OC)cc(OCC(N)=O)c1-c1nc2c(N)cccn2c1Nc1c(C)cccc1C
IC50: > 10 µM

COMPOUND: CCc1cc(OC2CCCCO2)cc(OCC(N)=O)c1-c1nc2ccc(F)cn2c1Nc1c(C)cccc1C (centres unmarked)
IC50: > 10 µM

COMPOUND: CCc1cc(OC)cc(OCC(N)=O)c1-c1nc2c(F)cc(F)c(N)n2c1Nc1c(C)cccc1C
IC50: 1 to 10 µM

---

TESTED_TARGET: SGLT1 (Homo sapiens)
TEST_DETAILS: SGLT1 activity measurement: 14C-AMG uptake in BHK cells transfected with SGLT1
REPORTED_CONDITIONS: AMG 50 μM, 37° C., 90 min
Experimental: The compounds can be tested on their SGLT inhibition properties by means of BHK cells expressing SGLT1 and SGLT2. The production of the cells and the testing can be carried out as described below. […] BHK cells (transfected with SGLT1 or SGLT2) were seeded into 96-well microtitre plates (Cultureplates, Perkin Elmer). […] The radioactivity was counted in a Topcount microplate scintillation counter (Perkin Elmer). […]
MEASUREMENT_LABEL: IC50

COMPOUND: COc1cc(C)c(-c2nc3ccc(F)cn3c2Nc2c(C)cccc2C)c(OCC(N)=O)c1
REPORTED_VALUE: 1 to 10 µM
//
COMPOUND: CCc1cccc(C)c1Nc1c(-c2ccccc2OCC(N)=O)nc2ccc(F)cn12
REPORTED_VALUE: > 10 µM
//
COMPOUND: COC(=O)c1cccc(C)c1Nc1c(-c2c(C)cc(OC)cc2OCC(N)=O)nc2ccc(F)cn12
REPORTED_VALUE: > 10 µM
//
COMPOUND: COc1ccc(-c2nc3ccccn3c2Nc2c(Cl)cccc2Cl)c(OCC(N)=O)c1
REPORTED_VALUE: 1 to 10 µM
//
COMPOUND: Cc1cccc(C)c1Nc1c(-c2c(Cl)cccc2OCC(N)=O)nc2ccc(F)cn12
REPORTED_VALUE: 1 to 10 µM
//
COMPOUND: CCc1cc(OC)cc(OCC(N)=O)c1-c1nc2ccc(F)cn2c1Nc1c(C)cccc1C
REPORTED_VALUE: 1 to 10 µM
//
COMPOUND: COc1cc(C)c(-c2nc3ccc(F)cn3c2Nc2c(C)cc(Cl)cc2C)c(OCC(N)=O)c1
REPORTED_VALUE: 1 to 10 µM
//
COMPOUND: COc1cc(C)c(-c2nc3ccc(F)cn3c2Nc2c(C)cccc2[N+](=O)[O-])c(OCC(N)=O)c1
REPORTED_VALUE: 1 to 10 µM
//
COMPOUND: COc1cc(C)c(-c2nc3ccccn3c2Nc2c(C)cccc2C)c(OCC(N)=O)c1
REPORTED_VALUE: > 10 µM
//
COMPOUND: Cc1cccc(C)c1Nc1c(-c2c(C)cc(OCC(O)CO)cc2OCC(N)=O)nc2ccc(F)cn12 (stereo not shown)
REPORTED_VALUE: > 10 µM

---

TESTED_TARGET: SGLT2 (Homo sapiens)
Sequence (P31639 1-672): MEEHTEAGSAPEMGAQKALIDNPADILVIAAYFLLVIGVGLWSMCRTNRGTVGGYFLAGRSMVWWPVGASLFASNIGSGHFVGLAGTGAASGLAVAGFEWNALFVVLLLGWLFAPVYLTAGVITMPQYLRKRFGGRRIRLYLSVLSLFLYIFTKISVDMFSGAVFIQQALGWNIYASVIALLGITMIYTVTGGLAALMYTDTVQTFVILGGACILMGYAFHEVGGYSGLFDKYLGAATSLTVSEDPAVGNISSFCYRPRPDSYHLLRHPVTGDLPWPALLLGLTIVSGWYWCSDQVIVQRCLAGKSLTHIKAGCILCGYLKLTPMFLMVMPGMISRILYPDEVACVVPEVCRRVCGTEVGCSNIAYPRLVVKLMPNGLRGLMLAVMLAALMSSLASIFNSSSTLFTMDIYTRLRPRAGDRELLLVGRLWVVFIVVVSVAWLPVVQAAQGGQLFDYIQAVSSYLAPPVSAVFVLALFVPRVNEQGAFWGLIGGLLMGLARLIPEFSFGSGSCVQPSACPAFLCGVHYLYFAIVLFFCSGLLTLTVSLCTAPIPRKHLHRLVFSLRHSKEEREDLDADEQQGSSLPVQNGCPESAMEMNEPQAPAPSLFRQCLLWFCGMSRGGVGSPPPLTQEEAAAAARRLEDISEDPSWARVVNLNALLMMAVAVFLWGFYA
TEST_DETAILS: SGLT2 activity measurement: 14C-AMG uptake in BHK cells transfected with SGLT2
REPORTED_CONDITIONS: AMG 2 mM, 37° C., 90 min
// reported IC50 per item

COMPOUND: COc1cc(C)c(-c2nc3ccc(F)cn3c2Nc2c(C)ccc(Cl)c2C)c(OCC(N)=O)c1
IC50: 10 to 1000 nM
//
COMPOUND: CCc1cc(OC)cc(OCC(N)=O)c1-c1nc2ccc(C(=O)O)cn2c1Nc1c(C)cccc1C
IC50: 1000 to 10000 nM
//
COMPOUND: Cc1cccc(C)c1Nc1c(-c2c(OCC(N)=O)ccc3ccccc23)nc2ccc(F)cn12
IC50: 10 to 1000 nM
//
COMPOUND: COc1cc(C)c(-c2nc3ccccn3c2Nc2c(C)cccc2C)c(OCC(N)=O)c1
IC50: 10 to 1000 nM
//
COMPOUND: COc1cc(C)c(-c2nc3c(F)cc(F)cn3c2Nc2c(C)cccc2C)c(OCC(N)=O)c1
IC50: 10 to 1000 nM
//
COMPOUND: Cc1cc(C)c(-c2nc3ccccn3c2Nc2c(C)cccc2C)c(OCC(N)=O)c1
IC50: 10 to 1000 nM
//
COMPOUND: Cc1cccc(C)c1Nc1c(-c2c(C)cc(OC3COC(=O)O3)cc2OCC(N)=O)nc2ccc(F)cn12 (stereo not shown)
IC50: 10 to 1000 nM
//
COMPOUND: CCc1cc(OC2CCCCO2)cc(OCC(N)=O)c1-c1nc2ccccn2c1Nc1c(C)cccc1C (stereo not shown)
IC50: 10 to 1000 nM
//
COMPOUND: Cc1cccc(C)c1Nc1c(-c2c(C)cc(OCC(N)=O)cc2OCC(N)=O)nc2ccccn12
IC50: 10 to 1000 nM
//
COMPOUND: COc1cc(C)c(-c2nc3ccc(F)cn3c2Nc2c(F)cc(Br)cc2F)c(OCC(N)=O)c1
IC50: 1000 to 10000 nM
//
COMPOUND: CCc1cc(OC)cc(OCC(N)=O)c1-c1nc2ccc(F)cn2c1Nc1c(C)cccc1C(F)(F)F
IC50: 10 to 1000 nM
//
COMPOUND: COc1cc(C)c(-c2nc3ccc(F)cn3c2Nc2c(C)cc(Br)c(C)c2Br)c(OCC(N)=O)c1
IC50: 1000 to 10000 nM
//
COMPOUND: CCc1cc(OCCOC)cc(OCC(N)=O)c1-c1nc2ccc(F)cn2c1Nc1c(C)cccc1C
IC50: 10 to 1000 nM
//
COMPOUND: COc1cc(C)c(-c2nc3ccc(F)cn3c2Nc2c(C)cccc2C)c(OCC(N)=O)c1OC
IC50: 1000 to 10000 nM
//
COMPOUND: COc1cc(C)c(-c2nc3ccc(F)cn3c2Nc2c(C)cc([N+](=O)[O-])cc2C)c(OCC(N)=O)c1
IC50: 10 to 1000 nM
//
COMPOUND: CCc1cc(OC)cc(OCC(N)=O)c1-c1nc2ccc(F)cn2c1Nc1c(C)cccc1C
IC50: 10 to 1000 nM

---

TESTED_TARGET: SGLT1 (Homo sapiens)
Sequence (P13866 1-664): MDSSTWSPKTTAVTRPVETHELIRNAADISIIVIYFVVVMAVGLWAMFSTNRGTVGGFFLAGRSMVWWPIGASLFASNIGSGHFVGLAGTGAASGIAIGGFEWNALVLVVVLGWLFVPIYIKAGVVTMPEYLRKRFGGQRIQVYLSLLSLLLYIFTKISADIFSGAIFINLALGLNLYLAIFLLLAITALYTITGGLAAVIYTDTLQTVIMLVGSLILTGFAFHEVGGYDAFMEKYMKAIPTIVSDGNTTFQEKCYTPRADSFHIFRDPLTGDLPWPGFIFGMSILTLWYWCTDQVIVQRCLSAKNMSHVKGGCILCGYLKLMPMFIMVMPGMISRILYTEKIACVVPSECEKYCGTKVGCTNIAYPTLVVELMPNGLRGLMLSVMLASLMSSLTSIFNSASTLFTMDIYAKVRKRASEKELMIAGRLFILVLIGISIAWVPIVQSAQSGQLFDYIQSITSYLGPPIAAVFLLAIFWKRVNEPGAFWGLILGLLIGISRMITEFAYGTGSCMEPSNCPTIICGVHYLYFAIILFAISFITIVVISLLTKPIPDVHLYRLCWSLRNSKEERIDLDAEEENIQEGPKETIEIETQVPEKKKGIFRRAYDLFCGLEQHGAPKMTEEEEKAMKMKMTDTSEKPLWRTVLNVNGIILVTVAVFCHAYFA
TEST_DETAILS: SGLT1 activity measurement: 14C-AMG uptake in BHK cells transfected with SGLT1
REPORTED_CONDITIONS: AMG 50 μM, 37° C., 90 min
pIC50: −log10 of the molar value.

COMPOUND: CCc1cc(OC2COC(=O)O2)cc(OCC(N)=O)c1-c1nc2ccc(F)cn2c1Nc1c(C)cccc1C (stereo not shown)
TESTED_TARGET: SGLT1 (Homo sapiens)
pIC50: 5.00 to 6.00
--
COMPOUND: Cc1cccc(C)c1Nc1c(-c2c(C)cc(OC3COC(=O)O3)cc2OCC(N)=O)nc2ccc(F)cn12 (stereo not shown)
TESTED_TARGET: SGLT1 (Homo sapiens)
pIC50: < 5.00
--
COMPOUND: CCc1cc(OCC(N)=O)cc(OCC(N)=O)c1-c1nc2ccc(F)cn2c1Nc1c(C)cccc1C
TESTED_TARGET: SGLT1 (Homo sapiens)
pIC50: < 5.00
--
COMPOUND: CCc1cc(OC)cc(OCC(N)=O)c1-c1nc2c(F)cc(F)cn2c1Nc1c(C)cc(F)cc1C
TESTED_TARGET: SGLT1 (Homo sapiens)
pIC50: 5.00 to 6.00
--
COMPOUND: CCc1cc(OC)cc(OCC(N)=O)c1-c1nc2ccc(F)cn2c1Nc1c(C)cccc1OC
TESTED_TARGET: SGLT1 (Homo sapiens)
pIC50: < 5.00
--
COMPOUND: Cc1cccc(C)c1Nc1c(-c2ccccc2OCC(N)=O)nc2cccc(C)n12
TESTED_TARGET: SGLT1 (Homo sapiens)
pIC50: < 5.00
--
COMPOUND: Cc1cccc(C)c1Nc1c(-c2ccccc2OCC(N)=O)nc2ccccn12
TESTED_TARGET: SGLT1 (Homo sapiens)
pIC50: < 5.00
--
COMPOUND: CCc1cc(OC)cc(OCC(N)=O)c1-c1nc2c(F)cc(F)cn2c1Nc1c(C)cccc1C
TESTED_TARGET: SGLT1 (Homo sapiens)
pIC50: 5.00 to 6.00
--
COMPOUND: COc1cc(Cl)c(-c2nc3ccc(F)cn3c2Nc2c(C)cccc2C)c(OCC(N)=O)c1
TESTED_TARGET: SGLT1 (Homo sapiens)
pIC50: < 5.00
--
COMPOUND: CCc1cc(OC)cc(OCC(N)=O)c1-c1nc2ccccn2c1Nc1c(C)cccc1C
TESTED_TARGET: SGLT1 (Homo sapiens)
pIC50: 5.00 to 6.00
--
COMPOUND: COc1cc(C)c(-c2nc3ccc(F)cn3c2Nc2c(F)cccc2C(F)(F)F)c(OCC(N)=O)c1
TESTED_TARGET: SGLT1 (Homo sapiens)
pIC50: 5.00 to 6.00
--
COMPOUND: COc1cc(C)c(-c2nc3ccc(F)cn3c2Nc2c(F)cccc2F)c(OCC(N)=O)c1
TESTED_TARGET: SGLT1 (Homo sapiens)
pIC50: 5.00 to 6.00
--
COMPOUND: COc1ccc(-c2nc3ccc(F)cn3c2Nc2c(C)cc(F)cc2C)c(OCC(N)=O)c1
TESTED_TARGET: SGLT1 (Homo sapiens)
pIC50: < 5.00
--
COMPOUND: Cc1cccc(Cl)c1Nc1c(-c2ccccc2OCC(N)=O)nc2cccc(C)n12
TESTED_TARGET: SGLT1 (Homo sapiens)
pIC50: 5.00 to 6.00
--
COMPOUND: COc1cc(C)c(-c2nc3ccc(F)cn3c2Nc2c(C)cccc2C(F)(F)F)c(OCC(N)=O)c1
TESTED_TARGET: SGLT1 (Homo sapiens)
pIC50: 5.00 to 6.00
--
COMPOUND: COc1cc(C)c(-c2nc3c(F)cc(F)cn3c2Nc2c(Cl)cc(F)cc2Cl)c(OCC(N)=O)c1
TESTED_TARGET: SGLT1 (Homo sapiens)
pIC50: 5.00 to 6.00
